Attribute: mass density
- condition: 288.15 K; 101.32 kPa; Liquid
Numbers after ± are expanded uncertainties.

Record excerpt, results attached:
In [3]: df
Out[3]:
   test_smiles     reported_value
0       CCCCCl  892.2 ± 0.6 kg/m3
1         CCCO  807.6 ± 0.9 kg/m3
2           CO  796.1 ± 0.9 kg/m3
3          CCO  793.8 ± 0.9 kg/m3

Would you kindly look at the next entry?
Enquiry: Give me measured mass density, please, for this compound: CCCCO
Return: 813.5 ± 0.9 kg/m3

----------
- measurement_protocol: refractive index (Na D-line) (dimensionless); xn = mol fraction of the nth substance listed
- condition: 308.15 K; 101.32 kPa; Liquid; x2 = 0.4
measurement_name: refractive index
The answer should be a number; do not append a unit.

Record excerpt, results attached:
                          molecule  reported_value
0   CCCCCl [1-chlorobutane] + CCCO          1.3882
1  CCCCCl [1-chlorobutane] + CCCCO          1.3931
2    CCCCCl [1-chlorobutane] + CCO          1.3823

Enquiry: Give me measured refractive index, please, for this molecule: CCCCCl [1-chlorobutane] + CO
Return: 1.3785

----------
- measurement_protocol: xn = mol fraction of the nth substance listed
- condition: 308.15 K; 101.32 kPa; Liquid; x2 = 0.3
Attribute: viscosity
# value in mPa·s; strip the unit string

Record excerpt, results attached:
                         compound  reported_value
0  CCCCCl [1-chlorobutane] + CCCO           0.447
1   CCCCCl [1-chlorobutane] + CCO            0.41
2    CCCCCl [1-chlorobutane] + CO           0.382

Enquiry: Give me measured viscosity, please, for this compound: CCCCCl [1-chlorobutane] + CCCCO
Return: 0.497

----------
Attribute: mass density
- measurement_protocol: xn = mol fraction of the nth substance listed
- condition: 288.15 K; 101.32 kPa; Liquid; x2 = 0.6
# value in kg/m3; strip the unit string

Record excerpt, results attached:
In [3]: df
Out[3]:
                          molecule  measurement_name  reported_value
0     CCCCCl [1-chlorobutane] + CO      mass density           854.6
1    CCCCCl [1-chlorobutane] + CCO      mass density           846.4
2  CCCCCl [1-chlorobutane] + CCCCO      mass density           847.3

Would you kindly look at the next entry?
Enquiry: Give me measured mass density, please, for this molecule: CCCCCl [1-chlorobutane] + CCCO
Return: 848.1

----------
- measurement_protocol: xn = mol fraction of the nth substance listed
- condition: 298.15 K; 101.32 kPa; Liquid; x2 = 0.4
measurement_name: viscosity (mPa·s)
# value in mPa·s; strip the unit string

                          molecule  reported_value
0     CCCCCl [1-chlorobutane] + CO           0.435
1  CCCCCl [1-chlorobutane] + CCCCO           0.665
2    CCCCCl [1-chlorobutane] + CCO           0.493

Enquiry: Give me measured viscosity, please, for this molecule: CCCCCl [1-chlorobutane] + CCCO
Return: 0.576

----------
- measurement_protocol: xn = mol fraction of the nth substance listed
- condition: 308.15 K; 101.32 kPa; Liquid; x2 = 0.1
Attribute: viscosity
# value in mPa·s; strip the unit string

Record excerpt, results attached:
                          compound  measurement_name  reported_value
0     CCCCCl [1-chlorobutane] + CO         viscosity           0.374
1  CCCCCl [1-chlorobutane] + CCCCO         viscosity            0.41
2   CCCCCl [1-chlorobutane] + CCCO         viscosity           0.395

Would you kindly look at the next entry?
Enquiry: Give me measured viscosity, please, for this compound: CCCCCl [1-chlorobutane] + CCO
Return: 0.388

----------
- measurement_protocol: xn = mol fraction of the nth substance listed
- condition: 288.15 K; 101.32 kPa; Liquid; x2 = 0.05
measurement_name: mass density (kg/m3)
# value in kg/m3; strip the unit string

                       compound  unit_label  reported_value
0  CCCCCl [1-chlorobutane] + CO       kg/m3           889.6

Enquiry: Give me measured mass density, please, for this compound: CCCCCl [1-chlorobutane] + CCCO
Return: 888.3

Enquiry: Give me measured mass density, please, for this compound: CCCCCl [1-chlorobutane] + CCO
Return: 888.5

Enquiry: Give me measured mass density, please, for this compound: CCCCCl [1-chlorobutane] + CCCCO
Return: 888

----------
Attribute: refractive index
- measurement_protocol: refractive index (Na D-line) (dimensionless); xn = mol fraction of the nth substance listed
- condition: 308.15 K; 101.32 kPa; Liquid; x2 = 0.6
The answer should be a number; do not append a unit.

Record excerpt, results attached:
>>> print(df.to_string())
                          molecule  reported_value
0  CCCCCl [1-chlorobutane] + CCCCO          1.3932
1    CCCCCl [1-chlorobutane] + CCO           1.375
2     CCCCCl [1-chlorobutane] + CO           1.366

Would you kindly look at the next entry?
Enquiry: Give me measured refractive index, please, for this molecule: CCCCCl [1-chlorobutane] + CCCO
Return: 1.3855

----------
- measurement_protocol: xn = mol fraction of the nth substance listed
- condition: 298.15 K; 101.32 kPa; Liquid; x2 = 0.2
Attribute: mass density
# value in kg/m3; strip the unit string

>>> print(df.to_string())
                          compound  reported_value
0  CCCCCl [1-chlorobutane] + CCCCO           866.3
1   CCCCCl [1-chlorobutane] + CCCO           867.3

Enquiry: Give me measured mass density, please, for this compound: CCCCCl [1-chlorobutane] + CO
Return: 871.2

Enquiry: Give me measured mass density, please, for this compound: CCCCCl [1-chlorobutane] + CCO
Return: 867.7

----------
- measurement_protocol: refractive index (Na D-line) (dimensionless); xn = mol fraction of the nth substance listed
- condition: 288.15 K; 101.32 kPa; Liquid; x2 = 0.3
measurement_name: refractive index
The answer should be a number; do not append a unit.

>>> print(df.to_string())
                         molecule  reported_value
0    CCCCCl [1-chlorobutane] + CO          1.3936
1  CCCCCl [1-chlorobutane] + CCCO          1.3998

Enquiry: Give me measured refractive index, please, for this molecule: CCCCCl [1-chlorobutane] + CCCCO
Return: 1.4031

Enquiry: Give me measured refractive index, please, for this molecule: CCCCCl [1-chlorobutane] + CCO
Return: 1.3958

----------
- measurement_protocol: xn = mol fraction of the nth substance listed
- condition: 288.15 K; 101.32 kPa; Liquid; x2 = 0.8
Attribute: mass density
# value in kg/m3; strip the unit string

Record excerpt, results attached:
>>> print(df.to_string())
                        molecule  unit_label  reported_value
0  CCCCCl [1-chlorobutane] + CCO       kg/m3           823.9
1   CCCCCl [1-chlorobutane] + CO       kg/m3           831.7

Enquiry: Give me measured mass density, please, for this molecule: CCCCCl [1-chlorobutane] + CCCCO
Return: 831.2

Enquiry: Give me measured mass density, please, for this molecule: CCCCCl [1-chlorobutane] + CCCO
Return: 829.6

----------
Attribute: mass density
- measurement_protocol: xn = mol fraction of the nth substance listed
- condition: 298.15 K; 101.32 kPa; Liquid; x2 = 0.05
# value in kg/m3; strip the unit string

>>> print(df.to_string())
                        compound  reported_value
0  CCCCCl [1-chlorobutane] + CCO           877.3
1   CCCCCl [1-chlorobutane] + CO           878.4

Enquiry: Give me measured mass density, please, for this compound: CCCCCl [1-chlorobutane] + CCCCO
Return: 876.9

Enquiry: Give me measured mass density, please, for this compound: CCCCCl [1-chlorobutane] + CCCO
Return: 877.2
